The reported measurements were obtained from the supplement of paper PMC12042874.

experiment: amyloid nucleation score (Sup35N fusion, yeast selection) (log enrichment); library NNK2; higher = more nucleation; inactive = no reads after selection;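 also: zero at mode of non-aggregating sequences after 7 days selection at 30°C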
Label rule, in plain words: amyloid nucleation score of 0.4 and up is 1 (yes), under 0.4 is 0 (no).

Observe how each entry below is paired with its result.
- SEQ_STRING: "KNGATLSCYILYSCGLMASV"
  LABEL_CLASS: "0 (no)"
- SEQ_STRING: "VFYRASRSFKQSVRAPVGLR"
  LABEL_CLASS: "0 (no)"
- SEQ_STRING: "DVRVISNDNAWDDLRLYFDK"
  LABEL_CLASS: "0 (no)"
- SEQ_STRING: "FIAYRFWFWKGVSASKEHGQ"
  LABEL_CLASS: "1 (yes)"
- SEQ_STRING: "TLLSTEMHDYKLLARQRCHP"
  LABEL_CLASS: "1 (yes)"
- SEQ_STRING: "YYSLLLGSTKSVAN"
  LABEL_CLASS: "0 (no)"
- SEQ_STRING: "YHCENDEALIRDSGPSKTTK"
  LABEL_CLASS: "1 (yes)"

--- query ---
Reported amyloid nucleation score reaches at least 0.4 for LFYRYFLCVTRRTNEYGVL ?
0 (no)

----------
test: amyloid nucleation score (Sup35N fusion, yeast selection) (log enrichment); library NNK3; higher = more nucleation; inactive = no reads after selection
QUANTITY_NAME: amyloid nucleation score

Check out these entries, answers already filled in.
- SUBSTANCE: "IEFGYLGT"
  amyloid nucleation score: "inactive"
- SUBSTANCE: "SVDDSFLYLYRYKGFCPNF"
  amyloid nucleation score: "inactive"
- SUBSTANCE: "SFLDMIRCDINLIYKRHRLG"
  amyloid nucleation score: "inactive"
- SUBSTANCE: "SVLYRWGYRTGWEL"
  amyloid nucleation score: 0.128
- SUBSTANCE: "FRKTRIALFLPLTLDF"
  amyloid nucleation score: "inactive"
- SUBSTANCE: "LTLNSKVTDM"
  amyloid nucleation score: "inactive"
- SUBSTANCE: "RTYLDYGVNALLCPLTWGFS"
  amyloid nucleation score: -0.071
- SUBSTANCE: "SDIMNDH"
  amyloid nucleation score: "inactive"
- SUBSTANCE: "SSSPVMYCMFLRSRSGRDYK"
  amyloid nucleation score: "inactive"
- SUBSTANCE: "RLHRLKDFTRNGCEYSSHLS"
  amyloid nucleation score: "inactive"

Can you share its amyloid nucleation score? I mean this substance: GTVSSYLRTHSKVFSRRFRD
inactive

Can you share its amyloid nucleation score? I mean this substance: ALYERWSTDNVWRRSSQEFL
inactive

Can you share its amyloid nucleation score? I mean this substance: PYQDIMNSQESGGDE
inactive

Can you share its amyloid nucleation score? I mean this substance: FEQNVGGLYWNKWSWGNLMR
inactive

Can you share its amyloid nucleation score? I mean this substance: CFIKSMRVVMVILPFAPCLK
inactive

Can you share its amyloid nucleation score? I mean this substance: SNYICTYIQKFSIVYCIPSH
1.96

Can you share its amyloid nucleation score? I mean this substance: YGEEEVE
inactive

----------
assay: amyloid nucleation score (Sup35N fusion, yeast selection) (log enrichment); library NNK3; higher = more nucleation; inactive = no reads after selection
QUANTITY_NAME: amyloid nucleation score

Check out these entries, answers already filled in.
- SUBSTANCE: "YMLLQERLECSSLVDVSYVR"
  amyloid nucleation score: "inactive"
- SUBSTANCE: "VVDNRNLSTCFYFRCVDWCQ"
  amyloid nucleation score: "inactive"
- SUBSTANCE: "WYTVRSKYANHVNDRHSRRW"
  amyloid nucleation score: -0.507
- SUBSTANCE: "FSAPVLSTLTASLLELKRSG"
  amyloid nucleation score: "inactive"

Can you share its amyloid nucleation score? I mean this substance: ILVYLASLVTNFNYVHIPLG
0.969

Can you share its amyloid nucleation score? I mean this substance: SEPLYSVVLSDMDELWHCL
inactive

Can you share its amyloid nucleation score? I mean this substance: HWESGGKIWNKEYLAGLLPR
inactive

----------
assay: amyloid nucleation score (Sup35N fusion, yeast selection) (log enrichment); library NNK2; higher = more nucleation; inactive = no reads after selection
So basically every entry gets a class from its amyloid nucleation score, ranges being bucket 1: < -0.2; bucket 2: ≥ -0.2 and < 0.9; bucket 3: ≥ 0.9

Observe how each entry below is paired with its result.
- SUBSTANCE: "YWANMVG"
  LABEL_CLASS: "bucket 1"
- SUBSTANCE: "NMYTWAE"
  LABEL_CLASS: "bucket 2"
- SUBSTANCE: "TNSRRCSYSLTPPSGTNRCQ"
  LABEL_CLASS: "bucket 2"
- SUBSTANCE: "YQDSKRE"
  LABEL_CLASS: "bucket 1"
- SUBSTANCE: "YFRISTWRFRTRHLGPCERG"
  LABEL_CLASS: "bucket 3"
- SUBSTANCE: "SFACVSLIFISY"
  LABEL_CLASS: "bucket 3"
- SUBSTANCE: "FYSCCPWLSLRSAMIYVMIS"
  LABEL_CLASS: "bucket 3"
- SUBSTANCE: "CMWWIHDPGRDRLKELKVAR"
  LABEL_CLASS: "bucket 2"
- SUBSTANCE: "ISGSRWRLGAIVGTVVEAFG"
  LABEL_CLASS: "bucket 2"
- SUBSTANCE: "TLIIWLTSICVVSGFVLSGE"
  LABEL_CLASS: "bucket 2"

Consider VNIFVLLYLYVWNASIVITF . To which amyloid nucleation score class does it belong?
bucket 1

Consider SISIACCA . To which amyloid nucleation score class does it belong?
bucket 3

----------
test: amyloid nucleation score (Sup35N fusion, yeast selection) (log enrichment); library NNK1; higher = more nucleation; inactive = no reads after selection
Label rule, in plain words: amyloid nucleation score of 0.2 and up is condition met, under 0.2 is condition not met.

- SUBSTANCE: "RLLFLFVHVSYGI"
  LABEL_CLASS: "condition not met"
- SUBSTANCE: "MSSRDNFWVSRGAMNYRMGA"
  LABEL_CLASS: "condition not met"
- SUBSTANCE: "MTRNHFRYTWSVANMWERGF"
  LABEL_CLASS: "condition not met"
- SUBSTANCE: "LLMYLLHSCYNVMHCLCLNF"
  LABEL_CLASS: "condition not met"
- SUBSTANCE: "FRVVCVHSLSMGNVFNFDWR"
  LABEL_CLASS: "condition met"
- SUBSTANCE: "MSFSPLLFVLATFCFGLWCW"
  LABEL_CLASS: "condition not met"

Reported amyloid nucleation score reaches at least 0.2 for HTGIIVKEVAQL ?
condition not met

Reported amyloid nucleation score reaches at least 0.2 for TIDKNNMESFITGFFGVRIL ?
condition met

Reported amyloid nucleation score reaches at least 0.2 for VFGCSGLDKSQWND ?
condition met

Reported amyloid nucleation score reaches at least 0.2 for NKMIKWASQDGCRKVRFSEE ?
condition not met

Reported amyloid nucleation score reaches at least 0.2 for VTWVWFGVLVCFRRDGTLTY ?
condition met

Reported amyloid nucleation score reaches at least 0.2 for TSLVVVSYMVTL ?
condition met

Reported amyloid nucleation score reaches at least 0.2 for ISINHVTCRLVFETGKWRWG ?
condition met

Reported amyloid nucleation score reaches at least 0.2 for SMQSSVDYKRGAMTFI ?
condition met

Reported amyloid nucleation score reaches at least 0.2 for KPKCNHRDRTSLEILRNNAL ?
condition met

Reported amyloid nucleation score reaches at least 0.2 for GRHRMVWGH ?
condition met

Reported amyloid nucleation score reaches at least 0.2 for QPFALNRLYHT ?
condition not met

Reported amyloid nucleation score reaches at least 0.2 for MFFLQCQMRLSLLVGNVLMR ?
condition not met

Reported amyloid nucleation score reaches at least 0.2 for CWRFRPFRPASIKFTQYNNH ?
condition met

Reported amyloid nucleation score reaches at least 0.2 for SGGNLFRVMRWSMHFVSVRL ?
condition not met

Reported amyloid nucleation score reaches at least 0.2 for LVRTIVLNKRIMWMIQLCFK ?
condition met

Reported amyloid nucleation score reaches at least 0.2 for MSNKTDEDESIYNRVGVIMG ?
condition not met

Reported amyloid nucleation score reaches at least 0.2 for KGLCDNVMDLVRLKGGSEAG ?
condition met

Reported amyloid nucleation score reaches at least 0.2 for RHALIYMVQVAQAGWGGLEV ?
condition not met

Reported amyloid nucleation score reaches at least 0.2 for LLNLHGSLMYLPSDLLGSHS ?
condition not met

----------
assay: amyloid nucleation score (Sup35N fusion, yeast selection) (log enrichment); library NNK3; higher = more nucleation; inactive = no reads after selection
QUANTITY_NAME: amyloid nucleation score

Check out these entries, answers already filled in.
- SUBSTANCE: "VLRTTECVQG"
  amyloid nucleation score: "inactive"
- SUBSTANCE: "NPIRGYLMYSPALSPLVG"
  amyloid nucleation score: "inactive"
- SUBSTANCE: "DYYTVCQAWIYIGFAILKW"
  amyloid nucleation score: "inactive"
- SUBSTANCE: "IYSVVGCWKPSSVSDMAGLL"
  amyloid nucleation score: "inactive"
- SUBSTANCE: "NISLLWDGAFCIYVCLLWRG"
  amyloid nucleation score: -0.438

Can you share its amyloid nucleation score? I mean this substance: EWSLKIVTMNMASWM
inactive

Can you share its amyloid nucleation score? I mean this substance: YLIGRGVMVFNFPWLLHHTN
1.58

Can you share its amyloid nucleation score? I mean this substance: SEAPSSR
inactive

Can you share its amyloid nucleation score? I mean this substance: TVLCFSACQENFSSSLRRLY
inactive

Can you share its amyloid nucleation score? I mean this substance: VLCGLARVKEVIASRRWECG
inactive

Can you share its amyloid nucleation score? I mean this substance: IFSMMLF
inactive

Can you share its amyloid nucleation score? I mean this substance: RFYGYTLY
inactive

Can you share its amyloid nucleation score? I mean this substance: LLMGFWIWFINGVCNVRTDS
inactive

Can you share its amyloid nucleation score? I mean this substance: IPVNYLASDMFN
inactive

Can you share its amyloid nucleation score? I mean this substance: AKNSKKSMLSVNGDRNDQSF
inactive

Can you share its amyloid nucleation score? I mean this substance: SYSFEYNHSDKFVSLYYMDI
inactive

Can you share its amyloid nucleation score? I mean this substance: GNGVTPWPAEENSSRSPMPY
inactive

Can you share its amyloid nucleation score? I mean this substance: GSICFNPTVWLVSRYRCS
1.19
